The origin of these recorded values is PubChem BioAssay (NCI).

Experiment: NCI Yeast Anticancer Drug Screen. Data for the sgs1 strain (AID 173);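 further: 0% = growth of vehicle-only control cultures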
Settings: S. cerevisiae sgs1 mutant, at 1.2 µM, hits give high values
Procedure: Growth inhibition of yeast strains with defined genetic alterations is measured as a screen for potential anti-cancer activity. Selected strains with alterations in DNA damage repair or cell cycle control were exposed to compounds and growth inhibition was measured relative to vehicle treated controls. The strain used in this assay is sgs1
Compounds without any hit were thinned out: in the full panel of roughly 79,000, 15% have a hit.
growth inhibition reference
Only the number, expressed in %, is required.

In the examples that follow, each entry is paired with its recorded growth inhibition.
# structure-notation, readout-name, measured
records = [
    ("O=C(CCC(=O)c1ccc(O)cc1)Oc1ccc(O)cc1", "growth inhibition", 1),
    ("CN1CCN(c2ccc3nc(-c4ccc5nc(-c6ccc(O)cc6)[nH]c5c4)[nH]c3c2)CC1", "growth inhibition", -5),
    ("Cc1ccc(P(c2ccc(C)cc2)c2ccc(C)cc2)cc1", "growth inhibition", -27),
    ("CCOC(=O)C1=C(C)NC(C)=C(C(=O)OCC)C1c1cccc([N+](=O)[O-])c1", "growth inhibition", -18),
]

Given item CN(C)CCNC(=O)c1cccc2nc3c4ccccc4c4ccccc4c3nc12 , the value recorded as its growth inhibition is 1

Given item O=C(/C(=C/c1ccccc1)CBr)c1ccccc1 , the value recorded as its growth inhibition is 5

Given item COc1ccc2c(Cc3c4ccccc4cc4ccccc34)cncc2c1O , the value recorded as its growth inhibition is 2

Given item COc1cc(C(C)(C)C)cc(OC)c1C(O)(c1c(OC)cc(C(C)(C)C)cc1OC)c1c(OC)cc(C(C)(C)C)cc1OC , the value recorded as its growth inhibition is -3

Given item [O-]c1c2cc(-[n+]3c(-c4ccccc4)cc(-c4ccccc4)cc3-c3ccccc3)cc1COCCOCCOCCOCCOC2 , the value recorded as its growth inhibition is -4

Given item COc1ccc2c(C)cc(N/N=C/c3sccc3C)nc2c1 , the value recorded as its growth inhibition is -34

Given item CN(C)c1ccc(C(c2ccc(Cl)cc2)c2ccc(N(C)C)cc2)cc1 , the value recorded as its growth inhibition is 24

====

Assay: NCI Yeast Anticancer Drug Screen. Data for the rad14 strain (AID 159);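 further: 0% = growth of vehicle-treated control cultures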
Details: S. cerevisiae rad14 strain growth inhibition; at 3.7 µM; hits give high values
About 79,000 compounds went through this panel and 15% of them were active in at least one assay; those are over-represented in the sample as a whole.
readout-name: growth inhibition (%)
Only the number, expressed in %, is required.

# compound, growth inhibition (%)
measured = [
    ("COc1ccc(/C(=N/O)c2ccccc2C2=Nc3ccccc3C(NCc3ccccc3)O2)cc1C (stereo not drawn)", 2),
    ("CCCC#CCOC(=O)c1cc([N+](=O)[O-])cc([N+](=O)[O-])c1", 28),
    ("CC(C)(C)[Si](C)(C)OCC1OC(n2cnc3c(N)ncnc32)C2OC(=S)OC12 (stereo not drawn)", 2),
]

Given item Cc1cc(N(CCOS(C)(=O)=O)CCOS(C)(=O)=O)ccc1C=O , the value recorded as its growth inhibition is 36

Given item O=[N+]([O-])c1cccc2nc3ccccc3c(NCCC[N+]3([O-])CCOCC3)c12 , the value recorded as its growth inhibition is 87

Given item CCSc1c2ccccc2c(-c2nc(F)nc(F)n2)n1CCc1ccccc1 , the value recorded as its growth inhibition is -12

Given item Cc1ccc(Nc2n[nH]c(=S)s2)cc1C , the value recorded as its growth inhibition is -29

Given item Cc1nc2ccc(Br)cc2c(=O)n1-c1ccc(NC2OCC(O)C(O)C2O)cc1 (stereo not drawn) , the value recorded as its growth inhibition is 5

Given item CSc1ccc2c(c1)C(N1CCN(C)CC1)Cc1ccccc1S2 (stereo not drawn) , the value recorded as its growth inhibition is -36
